The entries below come with measured melting point values attached.
Please reply with the bare figure in °C and do not write the unit itself.

molecule="Cc1ccc(C(C)(C)C)cc1 [1-tert-Butyl-4-methylbenzene]" observable="melting point" recorded_value=-52
molecule=CC1(c2ccccc2B(O)O)OCCO1 observable="melting point" recorded_value=111
molecule=CC(=O)Oc1ccc(-c2ccccc2)cc1 observable="melting point" recorded_value=88
molecule="CC(O)CN(C)C (centres undefined)" observable="melting point" recorded_value=-85
molecule=Nc1c(F)cc(Br)cc1F observable="melting point" recorded_value=64
molecule="O=C1C(CCS(=O)c2ccccc2)C(=O)N(c2ccccc2)N1c1ccccc1 (centres undefined)" observable="melting point" recorded_value=136

Query string: Which value of melting point has been reported for c1ccc2c(c1)c1ccccc1c1ccccc21 in the records?
Result string: 197

Query string: Next molecule up: O=c1[nH]c(=O)n([C@H]2C[C@H](O)[C@@H](CO)O2)cc1F
Result string: 150

Query string: Another molecule: O=C(Oc1ccc2ccccc2c1)c1ccccc1 [2-naphthyl benzoate]
Result string: 107

----------
melting point vs 70 °C: less than gives 1; not less than gives 0.

Completed entries (count: 10):
compound="O=C1Cc2c1cccc2[N+](=O)[O-] [2-nitrobicyclo[4.2.0]octa-1,3,5-trien-7-one]" category_label=0
compound=Brc1c(Br)c(Br)c(Br)c(Br)c1Br category_label=0
compound="C=CC(=O)OC [methyl_acrylate]" category_label=1
compound="CCCCI [1-iodobutane]" category_label=1
compound=CC(C)CC(C)C category_label=1
compound=O=C(O)c1c(F)cnc(F)c1F category_label=0
compound="COC(=O)c1cccc(O)c1 [methyl_3-hydroxybenzoate]" category_label=0
compound=Cc1ccc(Cl)c(Cl)c1 category_label=1
compound="CC(=O)Nc1ccccc1 [Acetanilide]" category_label=0
compound="CCOC(=O)c1ccccn1 [ethyl picolinate]" category_label=1

Switching to the query record.
Query string: Threshold test, melting point < 70 °C: CC(=O)c1ccc(C)cc1 [4'-methylacetophenone]
Result string: 1

----------
Property: melting point; scope: individual compounds
Just the number plus its unit, please.

Guide cases for melting point, answers given:
compound="Cc1cc(C)n(C(N)=O)n1 [3,5-dimethyl-1h-pyrazole-1-carboxamide]" observable="melting point" recorded_value="113 °C"
compound="CC1COC(=O)O1 (stereo not given)" observable="melting point" recorded_value="-55 °C"
compound="OC(c1ccccc1)(c1ccccc1)c1ccccc1 [triphenylmethanol]" observable="melting point" recorded_value="163 °C"
compound=O=C(O)CC(F)(F)F observable="melting point" recorded_value="9 °C"

Consider the additional compound presented here.
Query string: Which melting point reading was recorded for the compound CSc1cccc(B(O)O)c1 ?
Result string: 160 °C

----------
observable: melting point (°C)
Give just the numeric value; °C need not be written.

Past entries and their recorded results:
molecule=C=C(C)c1ccc(C(=C)C)cc1 unit_abbreviation=°C recorded_value=66
molecule="CC(C)CCCC(C)C1CC[C@@]2(C)[C@@]34CCC5[C@H](C)[C@@H](O)CC[C@]5(C)[C@]3(CC[C@]12C)O4 (stereo partly specified)" unit_abbreviation=°C recorded_value=162
molecule="NC(=O)c1cnccn1 [Pyrazinamide]" unit_abbreviation=°C recorded_value=189
molecule=O=C1C(Cl)=CC(=NCl)C=C1Cl unit_abbreviation=°C recorded_value=67
molecule=Cc1c(N(C)C)c(=O)n(-c2ccccc2)n1C unit_abbreviation=°C recorded_value=108

Query string: Find the recorded melting point belonging to COC(=O)c1ccc(CC#N)cc1 [methyl_p-cyanomethyl_benzoate] and report it.
Result string: 64

Query string: Another: CCOc1ccccc1OCC
Result string: 44

Query string: Next: Cc1cc(B(O)O)ccc1F
Result string: 210

Query string: Entry Cc1cc(Br)cc(Cl)c1N please
Result string: 39

Query string: Subsequent entry: CCc1ccccc1CC [o-diethylbenzene]
Result string: -31
